pIC50 reference
Target chain: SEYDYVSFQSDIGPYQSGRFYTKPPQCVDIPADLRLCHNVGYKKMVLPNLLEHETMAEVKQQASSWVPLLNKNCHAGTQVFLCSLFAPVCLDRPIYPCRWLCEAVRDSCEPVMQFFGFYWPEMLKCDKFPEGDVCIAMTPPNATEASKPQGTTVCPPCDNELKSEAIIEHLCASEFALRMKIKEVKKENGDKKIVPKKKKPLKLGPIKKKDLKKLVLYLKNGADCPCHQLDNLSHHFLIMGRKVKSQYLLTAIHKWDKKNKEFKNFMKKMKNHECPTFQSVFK
pIC50: −log10 of the molar value.
Test readout: pIC50

compound="CC(C)c1ccc(S(=O)(=O)c2ccccc2)cc1S(=O)(=O)NCC(O)c1cccnc1 (stereo not shown) [Example 735]" meas_value=6.05
compound="CC(C)c1ccc(S(=O)(=O)c2ccccc2)cc1S(=O)(=O)NC1CCN(C(=O)c2cccc(F)c2)CC1 [Example 804]" meas_value=6.52
compound="COc1ccccc1C(=O)N1CCC(NS(=O)(=O)c2cc(S(=O)(=O)c3ccccc3)ccc2C(C)C)CC1 [Example 803]" meas_value=6.54
compound="CC(C)c1ccc(S(=O)(=O)c2ccccc2)cc1S(=O)(=O)NC1CCN(C(=O)c2ccccc2)CC1 [Example 802]" meas_value=6.77
compound="CCc1ccc(S(=O)(=O)c2ccc(C)c(S(=O)(=O)NCCc3ccccn3)c2)cc1 [Example 418]" meas_value=5.89
compound="O=S(=O)(NCC1CCNCC1)c1cc(S(=O)(=O)c2ccccc2)ccc1C(F)(F)F [Example 899]" meas_value=6.52
compound="CC(C)c1ccc(S(=O)(=O)c2ccccc2)cc1S(=O)(=O)NC1CCN(C(=O)c2ccccc2F)CC1 [Example 806]" meas_value=6.64
